Assay: Selectivity ratio of Ki for Anopheles gambiae AChE to Ki for human recombinant AChE
The following ranges of Ratio Ki define the classes used here: Low: < 10; Medium: ≥ 10 and < 30; High: ≥ 30

molecule: CCCc1cccc(OC(=O)NC)c1
assigned.label: Medium
--
molecule: CCC(C)COc1ccccc1OC(=O)NC (racemic)
assigned.label: High
--
molecule: CNC(=O)Oc1cccc(C(C)C)c1
assigned.label: Low
--
molecule: CNC(=O)Oc1cccc2c1OC(C)(C)C2
assigned.label: Low
--
molecule: CCC(C)(CC)c1cccc(OC(=O)NC)c1
assigned.label: Low
--
molecule: CC[Si](C)(C)c1cccc(OC(=O)NC)c1
assigned.label: Medium
--
molecule: CCC(C)(c1cccc(OC(=O)NC)c1)C(F)(F)F (racemic)
assigned.label: Low
--
molecule: CCC(CC)COc1ccccc1OC(=O)NC
assigned.label: High
--
molecule: CCC(CC)COc1cccc(OC(=O)NC)c1
assigned.label: Low
--
molecule: CCC(CC)CSc1ccccc1OC(=O)NC
assigned.label: High
--
molecule: CNC(=O)Oc1ccccc1OCC(C)C
assigned.label: High
--
molecule: CNC(=O)Oc1cccc(CC(C)C)c1
assigned.label: Medium
--
molecule: CNC(=O)Oc1cccc(C(C)(C)C(F)(F)F)c1
assigned.label: Medium

###

Molecular target: Acetylcholinesterase (Anopheles gambiae) (UniProt Q869C3)
Sequence (Q869C3 39-737 limits assumed): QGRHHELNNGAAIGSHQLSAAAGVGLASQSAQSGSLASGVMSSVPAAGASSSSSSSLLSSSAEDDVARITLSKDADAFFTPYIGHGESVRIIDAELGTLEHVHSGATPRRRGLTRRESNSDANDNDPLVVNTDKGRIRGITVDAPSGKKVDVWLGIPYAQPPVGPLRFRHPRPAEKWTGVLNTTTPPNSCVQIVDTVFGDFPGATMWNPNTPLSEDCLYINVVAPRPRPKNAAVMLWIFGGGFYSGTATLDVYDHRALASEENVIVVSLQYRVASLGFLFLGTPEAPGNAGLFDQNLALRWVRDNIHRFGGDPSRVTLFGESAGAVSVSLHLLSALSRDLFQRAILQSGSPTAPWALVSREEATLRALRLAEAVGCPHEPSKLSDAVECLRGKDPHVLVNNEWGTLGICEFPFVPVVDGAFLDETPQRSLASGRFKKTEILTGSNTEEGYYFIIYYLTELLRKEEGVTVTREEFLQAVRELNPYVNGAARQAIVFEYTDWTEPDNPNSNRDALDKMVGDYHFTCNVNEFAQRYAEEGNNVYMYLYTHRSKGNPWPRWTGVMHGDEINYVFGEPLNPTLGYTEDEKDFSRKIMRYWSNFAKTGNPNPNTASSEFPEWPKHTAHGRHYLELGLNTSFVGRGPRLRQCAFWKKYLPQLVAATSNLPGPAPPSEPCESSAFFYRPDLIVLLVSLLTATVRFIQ
Experiment: Inhibition of Anopheles gambiae AChE expressed in Escherichia coli after 6 mins by Ellman assay
measured.attribute: apparent second-order inhibition rate constant ki (M⁻¹ s⁻¹)

molecule: CC[Si](C)(C)c1cccc(OC(=O)NC)c1
units.symbol: M⁻¹ s⁻¹
numeric.result: 25200
//
molecule: CNC(=O)Oc1ccccc1OC(C)C
units.symbol: M⁻¹ s⁻¹
numeric.result: 4430
//
molecule: CNC(=O)Oc1cccc2c1OC(C)(C)C2
units.symbol: M⁻¹ s⁻¹
numeric.result: 43700
//
molecule: CCCc1cccc(OC(=O)NC)c1
units.symbol: M⁻¹ s⁻¹
numeric.result: 14700
//
molecule: CNC(=O)Oc1ccccc1OCC1CCCC1
units.symbol: M⁻¹ s⁻¹
numeric.result: 163
//
molecule: CNC(=O)Oc1ccccc1SC
units.symbol: M⁻¹ s⁻¹
numeric.result: 1150
//
molecule: CNC(=O)Oc1cccc(C(C)C)c1
units.symbol: M⁻¹ s⁻¹
numeric.result: 54500
//
molecule: CNC(=O)Oc1cccc(CC(C)C)c1
units.symbol: M⁻¹ s⁻¹
numeric.result: 2580
//
molecule: CCCCc1cccc(OC(=O)NC)c1
units.symbol: M⁻¹ s⁻¹
numeric.result: 12400
//
molecule: CCC(C)CSc1ccccc1OC(=O)NC (racemic)
units.symbol: M⁻¹ s⁻¹
numeric.result: 13400
//
molecule: CNC(=O)Oc1ccccc1
units.symbol: M⁻¹ s⁻¹
numeric.result: 45.8
//
molecule: CCC(CC)CSc1ccccc1OC(=O)NC
units.symbol: M⁻¹ s⁻¹
numeric.result: 30800
//
molecule: CNC(=O)Oc1cccc(CCC(C)C)c1
units.symbol: M⁻¹ s⁻¹
numeric.result: 4530
//
molecule: CCC(CC)CCc1ccccc1OC(=O)NC
units.symbol: M⁻¹ s⁻¹
numeric.result: 1260
